TARGET_DESC: cPLA2 (Homo sapiens, UniProt P47712)
Sequence (P47712 whole entry, species assumed): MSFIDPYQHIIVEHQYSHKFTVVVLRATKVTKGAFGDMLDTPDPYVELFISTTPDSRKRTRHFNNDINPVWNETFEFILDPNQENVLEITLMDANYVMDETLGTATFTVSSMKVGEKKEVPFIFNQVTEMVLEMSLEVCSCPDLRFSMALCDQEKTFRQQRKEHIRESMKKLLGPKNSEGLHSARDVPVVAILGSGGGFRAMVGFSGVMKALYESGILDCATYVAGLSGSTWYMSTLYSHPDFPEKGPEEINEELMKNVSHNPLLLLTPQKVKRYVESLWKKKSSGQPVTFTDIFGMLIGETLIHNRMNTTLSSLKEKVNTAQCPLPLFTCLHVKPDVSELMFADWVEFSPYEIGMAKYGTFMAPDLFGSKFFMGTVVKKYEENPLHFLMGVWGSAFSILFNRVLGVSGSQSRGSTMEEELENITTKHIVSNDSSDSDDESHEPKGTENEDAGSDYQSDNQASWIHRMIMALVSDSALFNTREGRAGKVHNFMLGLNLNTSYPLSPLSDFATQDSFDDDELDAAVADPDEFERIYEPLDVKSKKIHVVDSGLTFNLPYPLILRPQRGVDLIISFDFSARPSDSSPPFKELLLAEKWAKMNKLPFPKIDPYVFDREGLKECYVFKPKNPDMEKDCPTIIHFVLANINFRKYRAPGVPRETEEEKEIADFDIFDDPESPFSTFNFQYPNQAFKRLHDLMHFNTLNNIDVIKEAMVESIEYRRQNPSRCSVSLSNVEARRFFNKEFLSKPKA
pIC50: −log10 of the molar value.

# GIVEN_SMILES, pIC50
records = [
    ("O=C(O)c1ccc(OCCc2c(CCNS(=O)(=O)Cc3ccc(Cl)c(Cl)n3)n(C(c3ccccc3)c3ccccc3)c3ccc(Cl)cc23)cc1", 6.40),
]
